- System: HeLa
- Assay Summary: Antiproliferative activity against human HeLa cells assessed as inhibition of cell growth incubated for 72 hrs by MTT assay
- Type: functional, cell-based
Readout: IC50 (µM)
The reply should contain only the number, in µM.

Worked cases, answers included:
CC(=O)O[C@H](COC(=O)c1ccccc1)[C@H]1OC(=O)C=C[C@H]1O[Si](C)(C)C(C)(C)C 9.96
CC(=O)O[C@H](COC(=O)c1ccccc1)[C@H]1OC(=O)C=C[C@H]1OC(=O)C(c1ccccc1)c1ccccc1 9.75
CC(=O)O[C@H](COC(=O)c1ccccc1)[C@H]1OC(=O)C=C[C@H]1OS(C)(=O)=O 14.2

Query compound follows.
Item: COc1cccc(C(=O)O[C@@H]2C=CC(=O)O[C@@H]2[C@@H](COC(=O)c2ccccc2)OC(C)=O)c1 Test system: HeLa Read-out: IC50 Value: ?
9.43
